- Test system: Human immunodeficiency virus 2
- EXPERIMENT NOTES: In vitro anti-HIV activity against HIV-2ROD infected in MT-4 cells using MTT assay
- Format: functional, organism-based
- RUN CONDITIONS: Human immunodeficiency virus 2, MT4
pEC50: −log10 of the molar value.
RECORDED METRIC: pEC50

SMILES DATA	RECORDED METRIC	MEASURED
COC(=O)CCC/C=C(/c1cc(C)c(OC)c(C(=O)OC)c1)c1cc(Cl)ccc1OC	pEC50	< 4.86
COC(=O)CCC/C=C(\c1cc(F)cc(C(F)(F)F)c1)c1cc(C)c(OC)c(C(=O)OC)c1	pEC50	< 5.23
COC(=O)CCC/C=C(\c1cc(C)c(OC)c(C(=O)OC)c1)c1cc(Cl)ccc1OC	pEC50	< 4.84

(Q) // Input: COC(=O)CCC/C=C(/c1cc(C)c2on(C)c(=O)c2c1)c1cc(Cl)ccc1OC . Output its pEC50 only.
(A) < 4.54

(Q) Query pEC50 for COC(=O)CCC/C=C(/c1cc(Cl)c(OC)c(C(=O)OC)c1)c1cc(Cl)ccc1OC
(A) < 5.27

(Q) Identify measured pEC50 corresponding to COC(=O)CCC/C=C(\c1cccc(C#N)c1)c1cc(Cl)ccc1OC
(A) < 4.17

(Q) Using known records, supply pEC50 for COC(=O)CCC/C=C(\c1cccc(C#N)c1)c1cc(C)c2onc(OC)c2c1
(A) < 5.25

(Q) Provide pEC50 value for the following compound: COC(=O)CCC/C=C(\c1cc(F)cc(C(F)(F)F)c1)c1cc(C)c2on(C)c(=O)c2c1
(A) < 4.36

(Q) Provide pEC50 value for the following compound: COC(=O)CCC/C=C(/c1cc(F)cc(C(F)(F)F)c1)c1cc(C)c(OC)c(C(=O)OC)c1
(A) 4.97
